# Tested on: N. europaea
# PROTOCOL_DETAILS: Whole-cell activity assay, inhibition of ammonia oxidation (nitrite accumulation from 500 µM NH4Cl)
# Assay type: cell-based, Nitrosomonas europaea
# EXPERIMENTAL_CONTEXT: Nitrosomonas europaea, 28°C, nitrite accumulation over 1 h, read-out: Half-maximal inhibitory concentration (IC50) of ammonia oxidation
ATTRIBUTE_MEASURED: IC50

| SMILES_STRUCTURE | SYSTEM_UNDER_TEST | MEASURED |
| --- | --- | --- |
| CCCCCO | N. europaea | 5.3 mM |
| CCCCCCCO | N. europaea | 4.5 mM |

Next compound, please.
stdin: Item: `CCCCCCO` Test system: N. europaea Read-out: IC50 Value: ?
stdout: 2.2 mM
